- Tested on: HIV in the HTLV-1 transformed cell line MT-4
- measurement.protocol: organism not typed
- Type: cell-based
- study.conditions: MT4, 96 h, MT-4 cells; luciferase/cell titer glo readout after 96 hours; 10 point dose response
Flag rule - IC50 less than 6 nM flags condition met; the remaining entries get condition not met.

molecule	cat
Cc1c(-c2c(C)c3c(c(C)c2[C@H](OC(C)(C)C)C(=O)O)CN(C(=O)c2ccc(Cl)cc2)C3)cc(F)c2c1CCCO2 (atropisomer, axis not shown; (M)) [Example 198]	condition met
Cc1ccc(C(=O)N2Cc3c(C)c(-c4cc(F)c5c(c4C)CCCO5)c([C@H](OC(C)(C)C)C(=O)O)c(C)c3C2)cc1 (atropisomer, axis not shown; (M)) [Example 190]	condition met
Cc1c(-c2c(C)c3c(c(C)c2[C@H](OC(C)(C)C)C(=O)O)CN(C(=O)N2CCCCC2)C3)cc(F)c2c1NCCO2 [Example 318]	condition met
Cc1ccc(-c2c(C)c3c(c(C)c2[C@H](OC(C)(C)C)C(=O)O)CN(C(=O)c2cc(F)c(F)c(F)c2)C3)cc1 [Example 279]	condition met
Cc1c(-c2c(C)c3c(c(C)c2[C@H](OC(C)(C)C)C(=O)O)CN(C(=O)c2ccccc2)C3)cc(F)c2c1CCCO2 (atropisomer, axis not shown; (M)) [Example 158]	condition met
Cc1ccc(-c2c(C)c3c(c(C)c2[C@H](OC(C)(C)C)C(=O)O)CN(C(=O)N2CCCC[C@H]2C)C3)cc1 [Example 69]	condition not met
Cc1ccc(-c2c(C)c3c(c(C)c2[C@H](OC(C)(C)C)C(=O)O)CN(C(=O)c2cccc(OC(C)C)c2)C3)cc1 [Example 234]	condition not met
Cc1c(-c2c(C)c3c(c(C)c2[C@H](OC(C)(C)C)C(=O)O)CN(C(=O)N2CCCC2)C3)cc(F)c2c1CCCO2 (atropisomer, axis not shown; (M)) [Example 208]	condition met
Cc1ccc(-c2c(C)c3c(c(C)c2[C@H](OC(C)(C)C)C(=O)O)CN(C(=O)c2cc(Cl)c(F)c(Cl)c2)C3)cc1 [Example 281]	condition not met
Cc1c(-c2c(C)c3c(c(C)c2[C@H](OC(C)(C)C)C(=O)O)CN(C(=O)c2cc(F)cc(Cl)c2)C3)cc(F)c2c1CCCO2 (atropisomer, axis not shown; (M)) [Example 181]	condition met

====

- Tested on: HIV in the HTLV-1 transformed cell line MT-4
- measurement.protocol: organism not typed
- Type: cell-based
- study.conditions: MT4, 96 h, MT-4 cells; luciferase/cell titer glo readout after 96 hours; 10 point dose response

compound	measured.target	IC50
Cc1ccc(-c2c(C)c3c(c(C)c2[C@H](OC(C)(C)C)C(=O)O)CN(C(=O)c2cncc(C)c2)C3)cc1 [Example 236]	HIV in the HTLV-1 transformed cell line MT-4	5 nM
Cc1c2c(c(C)c([C@H](OC(C)(C)C)C(=O)O)c1C1=CCC(C)(C)CC1)CN(C(=O)c1cccc3c1OCO3)C2 [Example 307]	HIV in the HTLV-1 transformed cell line MT-4	4 nM
COc1cc(F)cc(C(=O)N2Cc3c(C)c(-c4ccc(C)cc4)c([C@H](OC(C)(C)C)C(=O)O)c(C)c3C2)c1 [Example 122]	HIV in the HTLV-1 transformed cell line MT-4	3 nM
Cc1ccc(-c2c(C)c3c(c(C)c2[C@H](OC(C)(C)C)C(=O)O)CN(C(=O)c2ccc(Cl)c(Cl)c2)C3)cc1 [Example 276]	HIV in the HTLV-1 transformed cell line MT-4	16 nM

====

- Tested on: HIV in the HTLV-1 transformed cell line MT-4
- measurement.protocol: organism not typed
- Assay type: cell-based
- study.conditions: MT4, 96 h, MT-4 cells; luciferase/cell titer glo readout after 96 hours; 10 point dose response
pIC50: −log10 of the molar value.

compound	pIC50
Cc1ccc(-c2c(C)c3c(c(C)c2[C@H](OC(C)(C)C)C(=O)O)CN(S(=O)(=O)c2ccc(F)cc2)C3)cc1 [Example 49]	7.00
Cc1ccc(-c2c(C)c3c(c(C)c2[C@H](OC(C)(C)C)C(=O)O)CN(C(=O)c2cc(F)cc(C(N)=O)c2)C3)cc1 [Example 266]	6.90
Cc1ccc(-c2c(C)c3c(c(C)c2[C@H](OC(C)(C)C)C(=O)O)CN(C(=O)c2ccc(Cl)cc2)C3)cc1 [Example 270]	8.40

====

Listed here are compounds together with their documented pIC50.
- System: HIV in the HTLV-1 transformed cell line MT-4
- measurement.protocol: organism not typed
- Assay type: cell-based
- study.conditions: MT4, 96 h, MT-4 cells; luciferase/cell titer glo readout after 96 hours; 10 point dose response
pIC50: −log10 of the molar value.

compound	pIC50
Cc1ccc(-c2c(C)c3c(c(C)c2[C@H](OC(C)(C)C)C(=O)O)CN(C(=O)N2CCCCCC2)C3)cc1 [Example 60]	7.85
Cc1ccc(-c2c(C)c3c(c(C)c2[C@H](OC(C)(C)C)C(=O)O)CN(C(=O)c2ccc(C)nc2)C3)cc1 [Example 283]	7.89
Cc1c2c(c(C)c([C@H](OC(C)(C)C)C(=O)O)c1-c1ccc3c4c(ccnc14)CCO3)CN(C(=O)c1cccc(F)c1)C2 [Example 299]	7.85
Cc1ccc(-c2c(C)c3c(c(C)c2[C@H](OC(C)(C)C)C(=O)O)CN(C(=O)N2CCOC[C@@H]2C)C3)cc1 [Example 91]	7.89

====

- Tested on: HIV in the HTLV-1 transformed cell line MT-4
- measurement.protocol: organism not typed
- Format: cell-based
- study.conditions: MT4, 96 h, MT-4 cells; luciferase/cell titer glo readout after 96 hours; 10 point dose response
Listed here are compounds together with their documented IC50.

compound	IC50 / nM
Cc1c(-c2c(C)c3c(c(C)c2[C@H](OC(C)(C)C)C(=O)O)CN(C(=O)N2CCCCC2)C3)ccc2c1CCCO2	2
COc1ccc(C(=O)N2Cc3c(C)c(-c4cc(F)c5c(c4C)CCCO5)c([C@H](OC(C)(C)C)C(=O)O)c(C)c3C2)cc1F (atropisomer, axis not shown; (M))	3
Cc1c(-c2c(C)c3c(c(C)c2[C@H](OC(C)(C)C)C(=O)O)CN(C(=O)c2cc(Cl)c(F)c(Cl)c2)C3)cc(F)c2c1CCCO2 (atropisomer, axis not shown; (M))	4
Cc1ccc(-c2c(C)c3c(c(C)c2[C@H](OC(C)(C)C)C(=O)O)CN(C(=O)c2cc(F)ccc2F)C3)cc1	5
Cc1ccc(-c2c(C)c3c(c(C)c2C(OC(C)(C)C)C(=O)O)CN(CC2CCCCC2)C3)cc1 (stereo not shown)	71
Cc1ccc(-c2c(C)c3c(c(C)c2[C@H](OC(C)(C)C)C(=O)O)CN(C(=O)N[C@H]2CC[C@H](C)CC2)C3)cc1	616
Cc1c(-c2c(C)c3c(c(C)c2[C@H](OC(C)(C)C)C(=O)O)CN(C(=O)C2CCCCC2)C3)cc(F)c2c1CCCO2 (atropisomer, axis not shown; (M))	2

====

- Test system: HIV in the HTLV-1 transformed cell line MT-4
- measurement.protocol: organism not typed
- Assay type: cell-based
- study.conditions: MT4, 96 h, MT-4 cells; luciferase/cell titer glo readout after 96 hours; 10 point dose response
experimental.endpoint: IC50 (nM)

compound	obs.value
Cc1ccc(-c2c(C)c3c(c(C)c2[C@H](OC(C)(C)C)C(=O)O)CN(C(=O)c2cccnc2)C3)cc1	14
Cc1ccc(-c2c(C)c3c(c(C)c2[C@H](OC(C)(C)C)C(=O)O)CN(C(=O)N2CCCC2)C3)cc1	12
Cc1ccc(-c2c(C)c3c(c(C)c2[C@H](OC(C)(C)C)C(=O)O)CN(Cc2cccc(-c4ccccc4)c2)C3)cc1	184
Cc1ccc(C(=O)N2Cc3c(C)c(-c4cc(F)c5c(c4C)CCCO5)c([C@H](OC(C)(C)C)C(=O)O)c(C)c3C2)cc1F (atropisomer, axis not shown; (M))	5
Cc1ccc(-c2c(C)c3c(c(C)c2[C@H](OC(C)(C)C)C(=O)O)CN(C(=O)N2CCN(C)CC2)C3)cc1	276
Cc1ccc(-c2c(C)c3c(c(C)c2[C@H](OC(C)(C)C)C(=O)O)CN(C(=O)CC(C)(C)C)C3)cc1	6
Cc1ccc(-c2c(C)c3c(c(C)c2[C@H](OC(C)(C)C)C(=O)O)CN(C(=O)c2cc(F)cc(F)c2)C3)cc1	3
Cc1ccc(-c2c(C)c3c(c(C)c2[C@H](OC(C)(C)C)C(=O)O)CN(C(=O)C(=O)N2CCCCC2)C3)cc1	14
COc1ccc(C)c(C(=O)N2Cc3c(C)c(-c4ccc(C)cc4)c([C@H](OC(C)(C)C)C(=O)O)c(C)c3C2)c1	5
Cc1ccc(-c2c(C)c3c(c(C)c2[C@H](OC(C)(C)C)C(=O)O)CN(C(=S)c2cccc(F)c2)C3)cc1	15
Cc1ccc(-c2c(C)c3c(c(C)c2[C@H](OC(C)(C)C)C(=O)O)CN(C(=O)c2cc(F)ccc2C)C3)cc1	4
Cc1c(-c2c(C)c3c(c(C)c2[C@H](OC(C)(C)C)C(=O)O)CN(C(=O)c2cccc4c2OC(F)(F)O4)C3)cc(F)c2c1CCCO2 (atropisomer, axis not shown; (M))	2
Cc1c(-c2c(C)c3c(c(C)c2[C@H](OC(C)(C)C)C(=O)O)CN(C(=O)c2cccc(F)c2F)C3)cc(F)c2c1CCCO2 (atropisomer, axis not shown; (M))	4
Cc1ccc(-c2c(C)c3c(c(C)c2[C@H](OC(C)(C)C)C(=O)O)CN(C(=O)NC(C)(C)C)C3)cc1	15
Cc1ccc(-c2c(C)c3c(c(C)c2[C@H](OC(C)(C)C)C(=O)O)CN(C(=O)CN2CCCCC2)C3)cc1	143
Cc1ccc(-c2c(C)c3c(c(C)c2[C@H](OC(C)(C)C)C(=O)O)CN(C(=O)N2CCC(C)(C)C2)C3)cc1	5
Cc1ccc(-c2c(C)c3c(c(C)c2[C@H](OC(C)(C)C)C(=O)O)CN(Cc2ccc(F)c(F)c2)C3)cc1	51
Cc1ccc(-c2c(C)c3c(c(C)c2[C@H](OC(C)(C)C)C(=O)O)CN(C(=O)NCC2CCCCC2)C3)cc1	350
Cc1ccc(-c2c(C)c3c(c(C)c2[C@H](OC(C)(C)C)C(=O)O)CN(C(=O)c2cc(F)c(F)c(Cl)c2)C3)cc1	8
Cc1c(-c2c(C)c3c(c(C)c2[C@H](OC(C)(C)C)C(=O)O)CN(C(=O)N2CCCC[C@H]2C)C3)cc(F)c2c1CCCO2 (atropisomer, axis not shown; (M))	4
